Parameter: melting point. Scope: all listed entries.

Solved entries:
>>> df
                                   molecule  measurement_name         result
0  Cn1cc(C(C(=O)O)c2ccc3c(c2)OCO3)c2cc(Br)ccc21 (centres unmarked)     melting point  191 to 193 °C
1  COc1cc(C)ccc1S(=O)(=O)NC(=O)C(c1cc(OC)c2c(c1)OCO2)c1cn(C)c2cc(Br)ccc12 (centres unmarked)     melting point  235 °C (dec.)

COc1cc(C)ccc1S(=O)(=O)NC(=O)C(c1ccc2c(c1)OCO2)c1cn(C)c2ccc(Br)cc12 (centres unmarked) has a reported melting point of 145 to 150 °C

Looking up COc1cc(C)ccc1S(=O)(=O)NC(=O)C(c1ccc2c(c1)OCO2)c1cn(C)c2cc(Br)ccc12 (centres unmarked) , I see its melting point listed as 145 to 150 °C (dec.)

Query Cc1ccc(S(=O)(=O)NC(=O)C(c2cc3c(cc2Cl)OCO3)c2cn(C)c3cc(CO)ccc23)cc1 (centres unmarked) yields melting point of 207 to 209 °C

Data provenance: patent US6384070B2
